Test: Water retention property test 2 (hydrates)
Assay type: physicochemical
Conditions: hydrate (anhydrides: aqueous solution at mono- to trihydrate concentration); unsealed, 24 hours at 40° C. and 25% RH
Lab note: anything with Rate of reduction in moisture below 6% is marked label 1; values at 6% or higher are marked label 0.

Observe how each entry below is paired with its result.
Molecule	Label value
NC(CO)CO.O=C1O[C@H]([C@@H](O)CO)C(O)=C1O [Comparative example C106]	label 1
CC(O)C(=O)[O-].CCCC[N+](CCCC)(CCCC)CCCC [Working example C100]	label 0
NC(CO)CO.O=C(O)CO [Working example C68]	label 1

Does the reported Rate of reduction in moisture of CC(O)C(=O)[O-].CCCC[N+](CCCC)(CCCC)CCCC [Working example C102] stay below 6%?
label 0

====

Assay: Water retention property test 2 (hydrates)
Type: physicochemical
Details: hydrate (anhydrides: aqueous solution at mono- to trihydrate concentration); unsealed, 24 hours at 40° C. and 25% RH
Please provide measured Post-test moisture rate for the entries that follow.
One number for each entry, in %.

Molecule	Value units	Post-test moisture rate
NC(CO)(CO)CO.O=C1OC(C(O)CO)C(O)=C1O (stereo not shown) [Working example C108]	%	10.5
NC(CO)(CO)CO.O=C(O)CC(O)(CC(=O)O)C(=O)O [Working example C82]	%	9.8
NCCO.O=C1O[C@H]([C@@H](O)CO)C(O)=C1O [Working example C103]	%	13.0

The record that follows has no Post-test moisture rate shown yet.
Tell us which Post-test moisture rate value is on record for CCC(N)(CO)CO.O=C1O[C@H]([C@@H](O)CO)C(O)=C1O [Working example C107]
10.6

====

Assay: Water retention property test 1
Assay type: physicochemical
Conditions: 80 wt % aqueous solution; 24 hours at 40° C. and 25% RH
Measurement type: Water retention property test 1 Post-test moisture rate (%)
Give bare numbers, in %.

Consider the following illustrative entries.
Compound	Value units	Result value
CC[N+](C)(C)CCO.CS(=O)(=O)[O-] [Compound C36]	%	19.6
C[N+](C)(CCO)CC(O)CO.[Cl-] (stereo not shown) [Compound C37]	%	18.3
NC(CO)(CO)CO.O=C1OC(C(O)CO)C(O)=C1O (stereo not shown) [Compound C49]	%	19.4
CC(C)(C)CO [Compound C43]	%	19.3
CS(=O)(=O)O.NC(CO)(CO)CO [Compound C22]	%	19.8
O=C1OC(C(O)CO)C(O)=C1O.OCCN(CCO)CCO (stereo not shown) [Compound C42]	%	19.1
CC(O)C(=O)[O-].CCC(CO)(CO)[N+](CC(O)CO)(CC(O)CO)CC(O)CO (stereo not shown) [Compound C25]	%	19.0
O=C1OC(C(O)CO)C(O)=C1O.OCCNCCO (stereo not shown) [Compound C41]	%	19.2
CCC(C)(CO)CO [Compound C48]	%	19.4

We now examine a further compound.
Supply Water retention property test 1 Post-test moisture rate value. Item: CS(=O)(=O)[O-].C[N+](C)(C)CCO [Compound C32]
19.6

====

Provide the recorded Rate of reduction in moisture for the entries that follow.
Assay: Water retention property test 2 (hydrates)
Format: physicochemical
Settings: hydrate (anhydrides: aqueous solution at mono- to trihydrate concentration); unsealed, 24 hours at 40° C. and 25% RH
Numbers only, in %.

The cases that follow already have their Rate of reduction in moisture on record.
Compound	Value units	Result value
CCCC[N+](CCCC)(CCCC)CCCC.[Br-] [Comparative example C5]	%	15.1
C[N+](C)(C)CCO.O=C([O-])C=CC(=O)O	%	5.0
CC(O)C(=O)[O-].C[N+](C)(C)CCO	%	4.9
NC(CO)(CO)CO.O=C1OC(C(O)CO)C(O)=C1O (centres unmarked)	%	2.8
NC(CO)(CO)CO.O=C(O)CC(O)(CC(=O)O)C(=O)O	%	5.0
CCC(N)(CO)CO.O=C1O[C@H]([C@@H](O)CO)C(O)=C1O	%	2.8
CS(=O)(=O)O.NC(CO)(CO)CO	%	1.1
Cl.NC(CO)CO	%	10.5
CC(N)(CO)CO.CC(O)C(=O)O	%	2.8
C[N+](C)(CCO)CC(O)C[N+](C)(C)CCO.[Cl-].[Cl-]	%	10.2

Okay, here is my list. What is Rate of reduction in moisture for each of these?
1. CC(=O)[O-].C[N+](C)(C)CCO
2. CC(O)C(=O)[O-].CCC(CO)(CO)[N+](CC(O)CO)(CC(O)CO)CC(O)CO (centres unmarked)
3. CCCC[N+](CCCC)(CCCC)CCCC.[Br-] [Comparative example C6]
4. C[N+](C)(C)CCO.O=C([O-])CCC(=O)O

4.0
4.8
25.1
5.0
